system under test: T1, recombinant mouse αvβ8 (mouse, UniProt P43406 31-988; Q0VBD0 43-681, limits assumed)
T1 construct: Soluble recombinant heterodimer used as analyte at 200 nM in BLI
T1 sequence (P43406 31-988 limits assumed, chain 1 of 2): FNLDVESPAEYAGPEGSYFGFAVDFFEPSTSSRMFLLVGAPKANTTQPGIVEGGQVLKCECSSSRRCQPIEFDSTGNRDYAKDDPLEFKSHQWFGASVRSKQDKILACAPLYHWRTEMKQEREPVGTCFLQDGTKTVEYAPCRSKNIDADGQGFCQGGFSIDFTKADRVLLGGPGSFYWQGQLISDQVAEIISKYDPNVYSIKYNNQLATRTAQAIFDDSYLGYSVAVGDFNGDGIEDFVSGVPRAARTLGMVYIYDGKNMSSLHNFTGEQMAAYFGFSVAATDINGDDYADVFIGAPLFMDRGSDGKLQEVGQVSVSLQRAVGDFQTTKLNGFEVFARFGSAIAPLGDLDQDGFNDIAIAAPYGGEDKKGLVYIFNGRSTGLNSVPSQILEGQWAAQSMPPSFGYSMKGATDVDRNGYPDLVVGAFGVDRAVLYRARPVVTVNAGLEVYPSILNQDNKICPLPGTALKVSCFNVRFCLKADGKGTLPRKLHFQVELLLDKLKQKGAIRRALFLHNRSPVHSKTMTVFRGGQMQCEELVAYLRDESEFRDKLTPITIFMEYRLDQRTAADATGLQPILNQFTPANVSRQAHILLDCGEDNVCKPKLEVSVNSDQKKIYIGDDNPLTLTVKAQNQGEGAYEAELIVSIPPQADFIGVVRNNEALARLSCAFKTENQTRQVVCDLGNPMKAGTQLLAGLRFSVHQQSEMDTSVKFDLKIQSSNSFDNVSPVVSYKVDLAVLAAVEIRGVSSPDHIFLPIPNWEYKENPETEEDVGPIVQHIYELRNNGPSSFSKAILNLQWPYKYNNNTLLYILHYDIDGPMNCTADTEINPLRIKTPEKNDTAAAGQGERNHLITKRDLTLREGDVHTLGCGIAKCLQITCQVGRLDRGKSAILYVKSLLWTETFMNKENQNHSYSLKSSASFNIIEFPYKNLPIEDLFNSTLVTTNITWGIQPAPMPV
T1 sequence (Q0VBD0 43-681 limits assumed, chain 2 of 2): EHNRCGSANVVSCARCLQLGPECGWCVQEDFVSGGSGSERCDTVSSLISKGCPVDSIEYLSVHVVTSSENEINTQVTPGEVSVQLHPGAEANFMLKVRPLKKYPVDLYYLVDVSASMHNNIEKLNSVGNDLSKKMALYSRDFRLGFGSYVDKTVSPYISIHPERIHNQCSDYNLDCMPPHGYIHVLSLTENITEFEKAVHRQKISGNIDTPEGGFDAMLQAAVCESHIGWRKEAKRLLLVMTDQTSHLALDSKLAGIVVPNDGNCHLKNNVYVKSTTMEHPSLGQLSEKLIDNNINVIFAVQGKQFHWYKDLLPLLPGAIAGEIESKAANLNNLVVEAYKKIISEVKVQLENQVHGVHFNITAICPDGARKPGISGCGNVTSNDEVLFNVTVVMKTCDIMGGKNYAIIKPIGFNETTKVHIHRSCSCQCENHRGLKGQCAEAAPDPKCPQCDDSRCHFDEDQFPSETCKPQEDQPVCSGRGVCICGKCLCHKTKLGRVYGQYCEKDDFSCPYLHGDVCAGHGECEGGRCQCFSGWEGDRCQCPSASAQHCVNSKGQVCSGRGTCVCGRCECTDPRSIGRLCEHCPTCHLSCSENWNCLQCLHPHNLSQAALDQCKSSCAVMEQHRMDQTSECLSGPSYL
protocol summary: bio-layer interferometry, IgG on anti-human Fab-CH1 tips, αvβ8 200 nM
attribute measured: pKd
As a rule, pKd stands for the negative log10 of the concentration, concentration in M.

*Q* Give its pKd value. Item: ADWA16-4 (antibody, V domains shown) VH: EVQLVESGGGLVQPGGSLRLSCAVSGYIFSSYWVYWVRQAPGKGLEWVGYINPTTGYTEYADSVKGRFTISRDNSKNTLYLQMNSLRAEDTAVYYCATEGGNWEDYWGQGTLVTVSS VL: DIQMTQSPSSLSASVGDRVTITCRASKDISNYINWYQQKPGKAPKLLIYYTSRLYGGVPSRFSGSGSGTDFTLTISSLQPEDFATYYCQQFSELPRTFGQGTKVEIK
*A* 8.10
